Conditions: 323.15 K; 101 kPa; Liquid; Vibrating tube method
Kindly return fulfilled if reported mass density is no lower than 1000 kg/m3; return not fulfilled if it is lower.

See these solved cases before continuing.
CC(C)O
not fulfilled
CO
not fulfilled

Query: # check: mass density of OCCO is greater than or equal to 1000 kg/m3
Result: fulfilled

Query: # check: mass density of NCCOCCO is greater than or equal to 1000 kg/m3
Result: fulfilled

* * *

Details: 283.15 K; 101 kPa; Liquid; Vibrating tube method
Entries whose mass density is below 1000 kg/m3 take yes; entries at or above 1000 kg/m3 take no.

Query: Does OCCO have mass density strictly under 1000 kg/m3?
Result: no

Query: Does CO have mass density strictly under 1000 kg/m3?
Result: yes

Query: Does CC(C)O have mass density strictly under 1000 kg/m3?
Result: yes

Query: Does NCCOCCO have mass density strictly under 1000 kg/m3?
Result: no

* * *

Conditions: 313.15 K; 101 kPa; Liquid; Vibrating tube method
recorded-metric: mass density (kg/m3)
Reply with just the number (in kg/m3).

Examples with answers:
NCCO [2-aminoethan-1-ol]
1000.37
NCCOCCO [2-(2-aminoethoxy)ethanol]
1039.73
CC(C)O [propan-2-ol]
768.476
CO [methanol]
772.902

Form: molecule = OCCO [1,2-ethanediol] ; mass density = 1098.34

* * *

In this section, each of the compounds is paired with its reported mass density.
Details: 343.15 K; 101 kPa; Liquid; Vibrating tube method
Reply with just the number (in kg/m3).

Examples with answers:
NCCOCCO
1015.24
NCCO
976.153
OCCO
1076.65

Form: compound = CC(C)O ; mass density = 739.528

* * *

Settings: 303.15 K; 101 kPa; Liquid; Vibrating tube method
Kindly return met if reported mass density is no lower than 1000 kg/m3; return not met if it is lower.

NCCOCCO
met
CO
not met
OCCO
met

Alright, here's another compound for you.
Query: # check: mass density of CC(C)O is greater than or equal to 1000 kg/m3
Result: not met

* * *

Conditions: 333.15 K; 101 kPa; Liquid; Vibrating tube method
recorded-metric: mass density (kg/m3)
Reply with just the number (in kg/m3).

Examples with answers:
CC(C)O
749.679
NCCO
984.301
NCCOCCO
1023.46
OCCO
1083.99

Form: compound = CO ; mass density = 753.389

* * *

Conditions: 293.15 K; 101 kPa; Liquid; Vibrating tube method
In this section, each of the compounds is paired with its reported mass density.
Reply with just the number (in kg/m3).

Examples with answers:
CC(C)O
785.764
NCCOCCO
1055.86

Form: compound = NCCO ; mass density = 1016.23

Form: compound = OCCO ; mass density = 1112.37

Form: compound = CO ; mass density = 791.866
